Test system: Rattus norvegicus
Experiment: Analgesic activity in Albino rat assessed as reaction time at 10 mg/kg, po after 1 hr by Hot plate test
Assay type: functional
measured.quantity: Time
Entry format: amount then unit.

Query string: Please give the documented Time of Cc1noc(/C=C/c2ccccc2)c1N1CN=C2Oc3c(Br)cc(Br)cc3C=C2C1=O
Result string: 23.3 s

Query string: Please give the documented Time of Cc1ccc(/C=C/c2onc(C)c2-n2c(C)nc3nc4ccc(Cl)cc4cc3c2=O)cc1
Result string: 20.8 s

Query string: Please give the documented Time of Cc1noc(/C=C/c2ccccc2)c1N1CN=C2Oc3ccccc3C=C2C1=O
Result string: 17.7 s

Query string: Please give the documented Time of Cc1ccc2c(c1)C=C1C(=O)N(c3c(C)noc3/C=C/c3ccccc3)CN=C1O2
Result string: 21.2 s

---

Test: Antifungal activity against Verticillium dahliae after 72 to 96 hrs by agar cup method
Type: functional
Output true for records whose MIC is lower than 10 µg/mL, false for records at or above 10 µg/mL.

Query string: Strictly below 10 µg/mL: is that where MIC of Cc1ccc2c(c1)C=C1C(=O)N(c3c(C)noc3/C=C/c3ccccc3)CN=C1O2 sits?
Result string: false

Query string: Strictly below 10 µg/mL: is that where MIC of Clc1ccccc1C(c1ccccc1)(c1ccccc1)n1ccnc1 [CLOTRIMAZOLE] sits?
Result string: false

Query string: Strictly below 10 µg/mL: is that where MIC of Cc1noc(/C=C/c2ccccc2)c1-n1c(C)nc2nc3ccc(Cl)cc3cc2c1=O sits?
Result string: true

Query string: Strictly below 10 µg/mL: is that where MIC of Cc1noc(/C=C/c2ccccc2)c1-n1c(C)nc2nc3ccccc3cc2c1=O sits?
Result string: false

Query string: Strictly below 10 µg/mL: is that where MIC of Cc1noc(/C=C/c2ccccc2)c1N1CN=C2Oc3c(Cl)cc(Cl)cc3C=C2C1=O sits?
Result string: false

Query string: Strictly below 10 µg/mL: is that where MIC of Cc1noc(/C=C/c2ccccc2)c1N1CN=C2Oc3c(Br)cc(Br)cc3C=C2C1=O sits?
Result string: true

---

Please go through the items and note down their MIC.
Test system: Colletotrichum truncatum
Assay: Antifungal activity against Colletotrichum capsici after 72 to 96 hrs by agar cup method
Type: functional
Entry format: amount then unit.

Query string: Please give the documented MIC of Cc1ccc(/C=C/c2onc(C)c2N2CN=C3Oc4ccc(Cl)cc4C=C3C2=O)cc1
Result string: 12 µg/mL

Query string: Please give the documented MIC of Cc1ccc(/C=C/c2onc(C)c2-n2c(C)nc3nc4ccccc4cc3c2=O)cc1
Result string: 18 µg/mL

Query string: Please give the documented MIC of Cc1ccc(/C=C/c2onc(C)c2-n2c(C)nc3nc4ccc(Cl)cc4cc3c2=O)cc1
Result string: 14 µg/mL
